# test: Thermal decomposition temperature (TG/DTA, 2% weight reduction)
# Type: physicochemical
# particulars: point of 2% weight reduction; 10° C./minute from 30° C. to 500° C.; nitrogen atmosphere
Overview of recorded Thermal decomposition temperature for various molecules
All answers are understood in °C, so give the number only.

# input Give the value of Thermal decomposition temperature reported for the following: CC1(C)C2CC[C@@]1(CS(=O)(=O)ON1C(=O)c3cccc4c(Sc5ccccc5)ccc(c34)C1=O)C(=O)C2 [Example A-47]
# output 244

# input Give the value of Thermal decomposition temperature reported for the following: O=C1c2cccc3c(C(F)(F)C(F)(F)C(F)(F)C(F)(F)C(F)(F)C(F)(F)C(F)(F)C(F)(F)F)ccc(c23)C(=O)N1OS(=O)(=O)C(F)(F)F [Example A-17]
# output 242

# input Give the value of Thermal decomposition temperature reported for the following: O=C1c2cccc3c(C(F)(F)C(F)(F)C(F)(F)C(F)(F)C(F)(F)C(F)(F)C(F)(F)C(F)(F)F)ccc(c23)C(=O)N1OS(=O)(=O)c1c(F)c(F)c(F)c(F)c1F [Example A-37]
# output 244

# input Give the value of Thermal decomposition temperature reported for the following: CCCC(=O)Oc1cc2c3c(cccc3c1)C(=O)N(OS(=O)(=O)CC13CCC(CC1=O)C3(C)C)C2=O (stereo not shown) [Example A-50]
# output 237

# input Give the value of Thermal decomposition temperature reported for the following: CC(C)Oc1ccc2c3c(cccc13)C(=O)N(OS(=O)(=O)c1c(F)c(F)c(F)c(F)c1F)C2=O [Example A-21]
# output 236

# input Give the value of Thermal decomposition temperature reported for the following: CC(C)(C)Cc1cc2c3c(cc(CC(C)(C)C)cc3c1)C(=O)N(OS(=O)(=O)CC13CCC(CC1=O)C3(C)C)C2=O (stereo not shown) [Example A-54]
# output 252

# input Give the value of Thermal decomposition temperature reported for the following: O=C(Oc1cc2c3c(cccc3c1)C(=O)N(OS(=O)(=O)c1c(F)c(F)c(F)c(F)c1F)C2=O)c1c(F)c(F)c(F)c(F)c1F [Example A-32]
# output 244

# input Give the value of Thermal decomposition temperature reported for the following: CC1(C)[C@@H]2CC[C@@]1(CS(=O)(=O)ON1C(=O)c3cccc4c([Si](C)(C)C)ccc(c34)C1=O)C(=O)C2 [Example A-58]
# output 243

# input Give the value of Thermal decomposition temperature reported for the following: CC1(C)C2CC[C@@]1(CS(=O)(=O)ON1C(=O)c3cccc4cc(OC(=O)c5ccccc5)cc(c34)C1=O)C(=O)C2 [Example A-51]
# output 245
